Hello, the source for this data is PubChem BioAssay (NCI), in case you need it.

- Tested on: TK-10 renal
- Test Name: NCI tumour cell line growth inhibition, 48 h; in the data active = GI50 below about 0.43 µM; inactive = the rest
Classes used: class 1 for active, class 0 for inactive

INSERT INTO assay_data (compound, assigned_label) VALUES
  ('CCCCn1c2cc(OCc3cn(-c4ccc(Cl)cc4)nn3)ccc2c2ccnc(C)c21', 'class 0'),
  ('C#Cc1cccc(Nc2ncnc3cc(OCCOC)c(OCCOC)cc23)c1', 'class 1'),
  ('Oc1ccc(/C=N\Nc2ccccn2)c(O)c1', 'class 0'),
  ('CC(C)(C)N1CCC1C(N)=O (stereo unspecified)', 'class 0'),
  ('COc1c(O)c2c(c3cc(C(=O)N4CCc5c4c(O)c(OC)c4[nH]c(C(=O)N6CC7CC78C6=CC(=O)c6[nH]cc(C)c68)cc54)[nH]c13)CCN2C(N)=O (stereo unspecified)', 'class 0'),
  ('Oc1ccc(Cc2ccc(O)c3ncccc23)c2cccnc12', 'class 1'),
  ('O=Cc1c(-c2cc(O)ccc2O)nc2sccn12', 'class 0'),
  ('COc1ccc(/C=C/C(=O)c2cc3c(N)c(C(=O)Nc4ccccc4Cl)sc3nc2C)cc1', 'class 0'),
  ('CC[C@]1(O)CC2CN(CCc3c([nH]c4ccccc34)[C@@](C(=O)OC)(c3cc4c(cc3OC)N(C)[C@H]3[C@@](O)(C(=O)OC)[C@H](OC(C)=O)[C@]5(CC)C=CCN6CC[C@]43[C@@H]65)C2)C1 (stereo partly specified)', 'class 1'),
  ('CCOP(=O)(OCC)C(NC(c1ccccc1)c1ccccc1)c1ccccc1 (stereo unspecified)', 'class 0'),
  ('COc1cc(Nc2nc3cc(N)cc(N)c3nc2-c2ccccc2)cc(OC)c1', 'class 0');
